Test system: MS2 coat protein
Experiment: apparent KD of MS2 coat protein; designed switch direction (-1 OFF switch, 1 ON switch): -1; higher = weaker reporter binding
Conditions: input ligand: FMN 200 uM
Classify by measured apparent KD of MS2 coat protein: t if it is equal to or exceeds 0.09 µM, f if it is smaller.

{"RESIDUES": "UAAUAUCUGCAGGAUAUCGGUGUAGCACGCGUAUGAGAAGGGCAGACAUGAGGAUCACCCAUGUAUUAUAUCCG [Eternabot (L2) Solution 39] (Eterna round: R97, puzzle: Exclusion 6)", "CLASS_LABEL": "f"}
{"RESIDUES": "UAUUAGCAAGCGAGAUCCCACAUGAGGAUCACCCAUGUAACAUCCAGAAUUACUGGGUGCAAAGCUCGUCUUAUAUA [Winner reversed engineered 3] (Eterna round: R97, puzzle: Sensor, turn-off variant 1)", "CLASS_LABEL": "t"}
{"RESIDUES": "ACAUGUCAUCGAGGAUAUUGGACACAUGAGGAUCACCCAUGUACUCGGUUGCUCUAGCAUGAGUUCGAGAAGGCGAUGUACAUU [Ex NG2 #80] (Eterna round: R96, puzzle: Exclusion NG 2)", "CLASS_LABEL": "t"}
{"RESIDUES": "AGCUAGUCAGGAUAUUCUAUUAAUUACAUGAGGAUCACCCAUGUGAAUGGGCAAGGGUGUGAAGAAGGGACUAGCG [Omei Ex5 A16] (Eterna round: R97, puzzle: Exclusion 5)", "CLASS_LABEL": "t"}
{"RESIDUES": "UUAAAUCAUGUAGGAUAUGCGUGGCGAAGCUAUGCAGAAGGACAUGAGGAUCACCCAUGUUCUAGCGUCUGCGUACAGAUGCGG [JL JSci mod] (Eterna round: R96, puzzle: Exclusion NG 1)", "CLASS_LABEL": "t"}
{"RESIDUES": "AGACUCAUUGUGAGGAUAUCGGGUCAACGAGACUACGAGAAGGCACAUGAGGAUCACCCAUGUAGCCACGGCUA [Eternabot (L2) Solution 95] (Eterna round: R97, puzzle: Brourd's mod of Exclusion 4)", "CLASS_LABEL": "t"}
{"RESIDUES": "GAACAGGUAGGAUAUACUGGACGCGACAUGAGGAUCACCCAUGUCCUCGGCAUAGGCGCUGUAGAAGGGCCUAAAA [Eternabot (Original) Solution 29] (Eterna round: R97, puzzle: Exclusion 5)", "CLASS_LABEL": "f"}
{"RESIDUES": "ACGACGUAAGGAUAUACAUGAGGAUCACCCAUGUGGAGAUCCAGAGGAGAGACCUGACGUAGAAGGUGCGUCGA [Eternabot (L2) Solution 87] (Eterna round: R97, puzzle: Exclusion 3)", "CLASS_LABEL": "t"}
{"RESIDUES": "AUGGGUCCUCACGGAGCUACAUGAGGAUCACCCAUGUGGAUUGAGGAUAUCGUAACCCGACGGGACGAGAAGGCAGUUUACUGU [Ex NG3 #98] (Eterna round: R96, puzzle: Exclusion NG 3)", "CLASS_LABEL": "f"}
{"RESIDUES": "GGAUCUACUGAGGAUAUUACAUCACCCGAUUGAUAAGAAGGCAGAACAUGAGGAUCACCCAUGUGGGUAGCCAA [Polaris] (Eterna round: R97, puzzle: Exclusion 6)", "CLASS_LABEL": "f"}
{"RESIDUES": "CAUGGCUACUAGGAUAUGUCGCGAUGGACGCAAACAGAAGGAGUAACAUGAGGAUCACCCAUGUUGUGACCUAA [Mabiaris] (Eterna round: R97, puzzle: Exclusion 6)", "CLASS_LABEL": "t"}
{"RESIDUES": "GACUCUCCCGUGAGGAUAUAUGAGGCCAUGAUUCCAUAGAAGGCACAUGAGGAUCACCCAUGUCGGGCAUAGCC [Eternabot (L2) Solution 8] (Eterna round: R97, puzzle: Brourd's mod of Exclusion 4)", "CLASS_LABEL": "f"}
{"RESIDUES": "CCCAGUUACGUAGGAUAUUGUACAUGAGGAUCACCCAUGUAAUAAAUGAGGAUUUCGGGUGUCUACAAGAAGGACGGGAUAGGC [Ostracism 17 - Jieux - Exclusion NG 2] (Eterna round: R96, puzzle: Exclusion NG 2)", "CLASS_LABEL": "t"}
{"RESIDUES": "AAUAACAAGCUGAUCCUGCACAUGAGGAUCACCCAUGUGCUCGUCUUGUAAAGUACUAUCACGAAAGUGAUAGUACA (Eterna round: R97, puzzle: Sensor, turn-off variant 1)", "CLASS_LABEL": "f"}
{"RESIDUES": "AGCUUUUUGCUCGUCUUAUACAUGAGGAUCACCCAUGUAUUGGACCACAUCGAUAGAUGUGGGCCAAGAAGCAUGGG [Omdei Mir OFFv1 C2] (Eterna round: R97, puzzle: Sensor, turn-off variant 1)", "CLASS_LABEL": "t"}
{"RESIDUES": "GAUGCCAGAGGAUAUGCAUCGGGUUCCUGGUUAAGGCUGCCACAUGAGGAUCACCCAUGUAGAAGGCUGCCGUC [EX2 B.5] (Eterna round: R97, puzzle: Exclusion 2)", "CLASS_LABEL": "f"}
